Biological target: human muscarinic receptor M4 (Homo sapiens)
Sequence (P08173 1-479): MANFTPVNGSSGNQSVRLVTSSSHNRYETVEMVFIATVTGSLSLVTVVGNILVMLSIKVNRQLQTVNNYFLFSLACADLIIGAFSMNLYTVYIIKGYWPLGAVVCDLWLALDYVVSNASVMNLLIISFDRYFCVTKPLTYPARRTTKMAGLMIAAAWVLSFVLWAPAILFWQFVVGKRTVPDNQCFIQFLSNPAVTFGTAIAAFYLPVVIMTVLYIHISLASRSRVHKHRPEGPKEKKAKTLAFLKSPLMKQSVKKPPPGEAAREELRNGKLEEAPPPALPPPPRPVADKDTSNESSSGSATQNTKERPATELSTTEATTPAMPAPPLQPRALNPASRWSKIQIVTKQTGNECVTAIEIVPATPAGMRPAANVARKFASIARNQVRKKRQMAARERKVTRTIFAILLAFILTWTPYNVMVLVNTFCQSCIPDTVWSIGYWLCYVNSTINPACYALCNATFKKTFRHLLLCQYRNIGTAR
Test: Muscarinic receptor potency, C6 cells expressing recombinant M4 (chimeric Gq/i)
pIC50: −log10 of the molar value.
# reported pIC50; entries follow
result-type: pIC50

# compound, result-type, value-observed
data = [
    ("CN(C)CC/C=C1/c2ccccc2COc2ccc(CC(=O)O)cc21", "pIC50", 4.88),
    ("CN1CCCC(n2nc(Cc3ccc(Cl)cc3)c3ccccc3c2=O)CC1 (stereo not drawn)", "pIC50", 5.09),
    ("CN1CCC(=C2c3ccccc3CC(=O)c3sccc32)CC1", "pIC50", 6.25),
]

* * *

Biological target: human muscarinic receptor M5 (Homo sapiens)
Sequence (P08912 1-532): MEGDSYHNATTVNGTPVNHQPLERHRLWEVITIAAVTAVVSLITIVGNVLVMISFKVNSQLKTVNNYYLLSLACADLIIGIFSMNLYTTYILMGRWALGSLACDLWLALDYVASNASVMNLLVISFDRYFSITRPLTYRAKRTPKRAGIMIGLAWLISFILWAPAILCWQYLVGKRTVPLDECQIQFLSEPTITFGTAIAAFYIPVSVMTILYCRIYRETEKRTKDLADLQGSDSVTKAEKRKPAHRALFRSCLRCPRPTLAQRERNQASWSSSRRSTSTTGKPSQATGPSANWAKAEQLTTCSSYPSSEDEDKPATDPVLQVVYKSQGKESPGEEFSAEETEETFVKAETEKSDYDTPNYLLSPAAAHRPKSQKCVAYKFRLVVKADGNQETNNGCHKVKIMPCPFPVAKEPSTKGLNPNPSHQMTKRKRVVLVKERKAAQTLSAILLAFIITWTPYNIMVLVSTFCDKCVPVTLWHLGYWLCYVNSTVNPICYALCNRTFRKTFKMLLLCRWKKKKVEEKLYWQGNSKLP
Experiment: Muscarinic receptor potency, C6 cells expressing recombinant M5
result-type: IC50 (µM)

# compound, result-type, value-observed
rows = [
    ("CN1CCCC(n2nc(Cc3ccc(Cl)cc3)c3ccccc3c2=O)CC1 (stereo not drawn) [azelastine]", "IC50", 3.26),
    ("CN1CCC(=C2c3ccccc3CC(=O)c3sccc32)CC1 [ketotifen]", "IC50", 0.138),
    ("CN(C)CC/C=C1/c2ccccc2COc2ccc(CC(=O)O)cc21 [olopatadine]", "IC50", 10.7),
]
